assay.procedure: Metabolic stability, pooled human liver microsome incubations
stated.conditions: from pHLM CLint, well-stirred model with plasma fu, Q 21 mL min^−1 kg^−1
test.readout: Predicted In Vivo Hepatic Clearance, CLH (mL/min/kg)
One number for each entry, in mL/min/kg.

COC(=O)[C@@H](NC(=O)c1nn(CCCCCF)c2ccccc12)C(C)(C)C [(S)-5F-MDMB-PINACA (2)] :: 4.76
COC(=O)[C@@H](NC(=O)c1nn(CCCCF)c2ccccc12)C(C)(C)C [(S)-4F-MDMB-BINACA (4)] :: 7.51
COC(=O)[C@@H](NC(=O)c1nn(Cc2ccc(F)cc2)c2ccccc12)C(C)C [(S)-AMB-FUBINACA (1)] :: 15.27
C=CCCCn1nc(C(=O)N[C@H](C(=O)OC)C(C)(C)C)c2ccccc21 [(S)-MDMB-4en-PINACA (5)] :: 2.66
CC(C)[C@H](NC(=O)c1nn(CC2CCCCC2)c2ccccc12)C(N)=O [(S)-AB-[…] (11)] :: 1.77
C=CCCCn1cc(C(=O)N[C@H](C(=O)OC)C(C)(C)C)c2ccccc21 [(S)-MDMB-4en-PICA (12)] :: 5.69
COC(=O)[C@@H](NC(=O)c1cn(CC2CCCCC2)c2ccccc12)C(C)C [(S)-AMB-CHMICA (9)] :: 4.37

For COC(=O)[C@H](NC(=O)c1nn(CCCCF)c2ccccc12)C(C)(C)C [(R)-4F-MDMB-BINACA (4)] the molecule record lists Predicted In Vivo Hepatic Clearance, CLH as 8.55
